Origin of values: ChEMBL document CHEMBL4043295

target: UniProt:P56524; assay: Inhibition of recombinant human C-terminal GST-tagged HDAC4 expressed in baculovirus-infected insect cells using Boc-Lys(TFA)-AMC as substrate by fluorimeter
Sequence (P56524 whole entry): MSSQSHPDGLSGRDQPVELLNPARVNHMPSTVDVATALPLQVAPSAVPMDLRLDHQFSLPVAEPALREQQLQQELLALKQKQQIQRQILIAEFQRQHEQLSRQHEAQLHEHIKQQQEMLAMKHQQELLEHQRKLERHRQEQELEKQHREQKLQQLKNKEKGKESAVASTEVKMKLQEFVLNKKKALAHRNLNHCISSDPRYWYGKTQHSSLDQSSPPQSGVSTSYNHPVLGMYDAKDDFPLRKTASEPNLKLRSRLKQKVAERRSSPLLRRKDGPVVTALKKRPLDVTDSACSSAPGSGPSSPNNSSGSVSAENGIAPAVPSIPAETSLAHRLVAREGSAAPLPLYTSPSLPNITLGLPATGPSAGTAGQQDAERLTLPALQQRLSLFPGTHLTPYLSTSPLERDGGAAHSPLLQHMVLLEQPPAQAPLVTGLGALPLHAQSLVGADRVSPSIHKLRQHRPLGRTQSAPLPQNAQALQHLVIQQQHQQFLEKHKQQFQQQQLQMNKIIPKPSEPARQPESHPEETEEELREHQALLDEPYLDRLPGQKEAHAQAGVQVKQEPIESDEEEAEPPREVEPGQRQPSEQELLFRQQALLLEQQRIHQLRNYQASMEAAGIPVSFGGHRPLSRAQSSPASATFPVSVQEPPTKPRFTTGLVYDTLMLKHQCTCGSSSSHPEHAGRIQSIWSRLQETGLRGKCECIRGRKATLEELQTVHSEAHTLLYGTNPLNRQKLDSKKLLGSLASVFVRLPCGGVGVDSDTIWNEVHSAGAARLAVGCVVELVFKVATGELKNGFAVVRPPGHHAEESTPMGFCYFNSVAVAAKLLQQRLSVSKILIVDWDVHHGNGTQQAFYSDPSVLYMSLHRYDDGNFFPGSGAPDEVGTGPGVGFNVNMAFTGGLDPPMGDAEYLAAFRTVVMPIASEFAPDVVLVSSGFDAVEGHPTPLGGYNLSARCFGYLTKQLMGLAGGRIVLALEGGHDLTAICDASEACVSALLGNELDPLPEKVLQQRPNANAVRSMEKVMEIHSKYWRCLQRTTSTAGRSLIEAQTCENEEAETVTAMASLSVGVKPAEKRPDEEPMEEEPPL
assay_metric: pKi
Quick note: pKi values are minus log10 of concentrations in mol/L.

Request: Quick one: give measured pKi for CN1C(=O)C2CN(Cc3c2c2ccccc2n3Cc2ccc(C(=O)NO)cc2)C1=O (stereo unspecified)
Result: 5.74

----------
target: Histone deacetylase 11 (Homo sapiens); assay: Inhibition of recombinant human N-terminal His-tagged HDAC11 (1 to 347 residues) expressed in baculovirus-infected insect cells using RHKK(Ac)AMC as substrate by fluorimeter
Sequence (Q96DB2 whole entry, the tested form may be a part): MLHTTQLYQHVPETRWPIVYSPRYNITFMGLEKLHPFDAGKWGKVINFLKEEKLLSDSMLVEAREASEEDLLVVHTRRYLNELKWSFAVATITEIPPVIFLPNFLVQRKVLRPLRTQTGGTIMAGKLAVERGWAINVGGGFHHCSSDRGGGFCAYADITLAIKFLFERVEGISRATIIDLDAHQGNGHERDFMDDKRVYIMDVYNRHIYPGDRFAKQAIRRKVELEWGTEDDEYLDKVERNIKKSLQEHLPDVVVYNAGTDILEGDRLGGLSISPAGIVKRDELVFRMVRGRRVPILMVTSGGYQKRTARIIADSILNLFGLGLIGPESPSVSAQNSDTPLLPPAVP
assay_metric: Ki (nM)
The response must be a number in nM with no trailing unit.

Request: Quick one: give measured Ki for CN1C(=O)C2CN(Cc3c2c2ccccc2n3Cc2ccc(C(=O)NO)cc2)C1=O (stereo unspecified)
Result: 495
